Cited source: patent US20240109865A1

Molecular target: FGFR3-BAIAP2L1 Ba/F3 cells (Homo sapiens, UniProt P22607)
Assay: Ba/F3 cell viability assay (CellTiter-Glo 2.0), FGFR3-BAIAP2L1 Ba/F3
Format: cell-based
Conditions: FGFR3 > FGFR1 selectivity ratio in Ba/F3 FGFR fusion cell based assays
measurement-name: Ba/F3 FGFR1/FGFR3 Selectivity
Give bare numbers.

Consider the following illustrative entries.
* CC(Oc1ccc2[nH]nc(-c3ccc(N4CC5(C4)CN(S(C)(=O)=O)C5)nc3)c2c1)c1c(Cl)ccnc1Cl (stereo not shown) [Example 109] | 12
* C[C@@H](Oc1ccc2[nH]nc(-c3ccc(N4CCN(C(=O)N(C)C)CC4)nc3)c2c1)c1c(Cl)cncc1Cl [Example 5] | 22
* Cc1cncc(C)c1[C@H](C)Oc1ccc2[nH]nc(-c3ccc(N4CC5(C4)CN(S(C)(=O)=O)C5)nc3)c2c1 [Example 140] | 19
* C[C@@H](Oc1ccc2[nH]nc(-c3cnc(N4CCN(C(=O)N5CCN(C)CC5)CC4)nc3)c2c1)c1c(Cl)cncc1Cl [Example 15] | 10
* C[C@@H](Oc1ccc2[nH]nc(-c3ccc(N4CCC5(CCCO5)CC4)nc3)c2c1)c1c(Cl)cncc1Cl [Example 26] | 28
* C[C@@H](Oc1ccc2[nH]nc(-c3cnc(N4CCC5(CC4)CC(=O)NC5=O)nc3)c2c1)c1c(Cl)cncc1Cl [Example 50] | 16

Now let's try a different one.
Query: Ba/F3 FGFR1/FGFR3 Selectivity; subject: C[C@@H](Oc1ccc2[nH]nc(-c3ccc(N4CC5(CCN(S(C)(=O)=O)CC5)C4)nc3)c2c1)c1c(Cl)cncc1Cl [Example 111]
15

---

Biological target: FGFR3-BAIAP2L1 Ba/F3 cells (Homo sapiens)
Assay: Ba/F3 cell viability assay (CellTiter-Glo 2.0), FGFR3-BAIAP2L1 Ba/F3
Assay type: cell-based
Conditions: read-out: Ba/F3 Cells FGFR3 (IC50 nM); FGFR3-BAIAP2L1 Ba/F3 cells, 48 hours, Cell Titer Glo 2.0; given as a number
measurement-name: IC50 (nM)
One number for each entry, in nM.

Look up IC50: Cc1ncc(Cl)c([C@@H](C)Oc2ccc3[nH]nc(-c4cnn(C5CCN(C6COC6)CC5)c4)c3c2)c1Cl
15

---

For each of the compounds below, state its Kd.
Biological target: FGFR4 (Homo sapiens (Human))
Sequence (P22455 22-802): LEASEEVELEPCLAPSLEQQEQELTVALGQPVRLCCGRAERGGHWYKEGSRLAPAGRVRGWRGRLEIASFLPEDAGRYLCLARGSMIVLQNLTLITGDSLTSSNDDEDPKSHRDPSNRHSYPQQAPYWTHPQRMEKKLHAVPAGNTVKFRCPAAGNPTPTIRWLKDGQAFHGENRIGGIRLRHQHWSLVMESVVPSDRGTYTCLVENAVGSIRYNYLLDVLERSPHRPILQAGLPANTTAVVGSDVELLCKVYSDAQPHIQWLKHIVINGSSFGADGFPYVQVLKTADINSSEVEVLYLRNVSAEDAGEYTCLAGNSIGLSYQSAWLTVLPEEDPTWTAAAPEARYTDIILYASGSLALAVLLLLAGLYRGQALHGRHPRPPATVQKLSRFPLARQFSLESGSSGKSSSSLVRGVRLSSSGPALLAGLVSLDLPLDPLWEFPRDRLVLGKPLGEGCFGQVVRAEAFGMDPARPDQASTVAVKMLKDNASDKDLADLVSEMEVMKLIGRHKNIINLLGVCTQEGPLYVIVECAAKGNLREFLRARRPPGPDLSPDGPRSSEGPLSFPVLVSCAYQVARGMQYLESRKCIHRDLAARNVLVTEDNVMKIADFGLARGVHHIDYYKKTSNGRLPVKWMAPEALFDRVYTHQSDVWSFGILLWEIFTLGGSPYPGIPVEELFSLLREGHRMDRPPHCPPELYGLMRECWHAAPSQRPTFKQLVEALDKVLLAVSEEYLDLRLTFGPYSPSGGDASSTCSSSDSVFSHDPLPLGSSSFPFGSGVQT
Test: Kinase assay, binding constants (Kd), kinase-tagged T7 phage, qPCR

A selection of reference data follows.
* C[C@@H](Oc1ccc2[nH]nc(-c3ccc(N4CC5(CCN5S(C)(=O)=O)C4)nc3)c2c1)c1c(Cl)cncc1Cl | 1 to 20 nM
* C[C@@H](Oc1cc2c(-c3ccc(N4CC5(C4)CN(S(C)(=O)=O)C5)nc3)n[nH]c2cc1F)c1c(Cl)cncc1Cl | 1 to 20 nM
* C[C@@H](Oc1ccc2[nH]nc(-c3ccc(N4CC5(CN(CC(F)(F)F)C5)C4)nc3)c2c1)c1c(Cl)cncc1Cl | 1 to 20 nM
* C[C@@H](Oc1cc2c(-c3ccc(N4CC5(C4)CN(S(C)(=O)=O)C5)nc3)n[nH]c2cc1Cl)c1c(Cl)cnnc1Cl | 1 to 20 nM
* C[C@@H](Oc1ccc2[nH]nc(-c3cnc(N4CCNCC4)nc3)c2c1)c1c(Cl)cncc1Cl | 1 to 20 nM

Provide reported Kd for each item, in the same order as listed.
1. C[C@@H](Oc1ccc2[nH]nc(-c3cnc(N4CC5(CCNC5)C4)nc3)c2c1)c1c(Cl)cncc1Cl
2. C[C@@H](Oc1ccc2[nH]nc(-c3cnc(N4CC5(CCCS(=O)(=O)C5)C4)c(C#N)c3)c2c1)c1c(Cl)cncc1Cl
3. C[C@@H](Oc1ccc2[nH]nc(-c3cnc(N4CC(O)C4)c(C#N)c3)c2c1)c1c(Cl)cnc(F)c1Cl

1. 1 to 20 nM
2. 1 to 20 nM
3. 20 to 100 nM

Batch: Kd for all items listed.
1. C[C@@H](Oc1ccc2[nH]nc(-c3ccc(N4CC(C(F)(F)F)C4)nc3)c2c1)c1c(Cl)cncc1Cl
2. C[C@@H](Oc1ccc2[nH]nc(-c3cnc(N4CC5C(O)C5C4)c(C#N)c3)c2c1)c1c(Cl)cncc1Cl (some centres unmarked)
3. CCS(=O)(=O)N1CC2(CN(c3ccc(-c4n[nH]c5ccc(O[C@H](C)c6c(Cl)cnc(C)c6Cl)cc45)cn3)C2)C1
4. CC(Oc1ccc2[nH]nc(-c3cnn(C4CCN(C5COC5)CC4)c3)c2c1)c1c(Cl)ccnc1Cl (centres unmarked)
5. C[C@@H](Oc1ccc2[nH]nc(-c3ccc(N4CC5(CCS(=O)(=O)CC5)C4)nc3)c2c1)c1c(Cl)cncc1Cl

1. 1 to 20 nM
2. 1 to 20 nM
3. 20 to 100 nM
4. 20 to 100 nM
5. 1 to 20 nM

// Kd lookup, key: COc1c(O[C@H](C)c2c(C)cnnc2C)ccc2[nH]nc(-c3ccc(N4CC5(C4)CN(S(C)(=O)=O)C5)nc3)c12
> 300 nM

---

Task for the reader: assign each of the following compounds its reported Kd.
Biological target: FGFR4 (Homo sapiens (Human))
Experiment: Kinase assay, binding constants (Kd), kinase-tagged T7 phage, qPCR

* COC(=O)N1CC2(C1)CN(c1ccc(-c3n[nH]c4ccc(O[C@H](C)c5c(Cl)cnc(F)c5Cl)cc34)cn1)C2 | 20 to 100 nM
* CC(C)OC(=O)N1CCCC2(C1)CN(c1ncc(-c3n[nH]c4ccc(O[C@H](C)c5c(Cl)cncc5Cl)cc34)cn1)C2 | 1 to 20 nM
* C[C@@H](Oc1cc2c(-c3cnc(N4CCC4)c(S(C)(=O)=O)c3)n[nH]c2cc1Cl)c1c(Cl)cncc1Cl | 20 to 100 nM

I have 4 compounds here; please give me Kd for each one.
1. COc1cc2[nH]nc(-c3cnc(N4CC5(COC5)C4)c(C#N)c3)c2cc1O[C@H](C)c1c(C)cnnc1C [Example 324]
2. C[C@@H](Oc1ccc2[nH]nc(-c3cnc(N4CC[C@H]4CO)c(C#N)c3)c2c1)c1c(Cl)cncc1Cl
3. C[C@@H](Oc1ccc2[nH]nc(-c3ccc(N4CCC5(CC4)CN(C)CC(=O)N5C)nc3)c2c1)c1c(Cl)cncc1Cl
4. COc1cc(-c2n[nH]c3ccc(O[C@H](C)c4c(Cl)cncc4Cl)cc23)cnc1N1CC2(C1)CN(S(C)(=O)=O)C2

1: 1 to 20 nM; 2: 1 to 20 nM; 3: 1 to 20 nM; 4: 1 to 20 nM

---

Provide the reported Kd of each item.
Biological target: UniProt:P11362
Sequence (P11362 22-822): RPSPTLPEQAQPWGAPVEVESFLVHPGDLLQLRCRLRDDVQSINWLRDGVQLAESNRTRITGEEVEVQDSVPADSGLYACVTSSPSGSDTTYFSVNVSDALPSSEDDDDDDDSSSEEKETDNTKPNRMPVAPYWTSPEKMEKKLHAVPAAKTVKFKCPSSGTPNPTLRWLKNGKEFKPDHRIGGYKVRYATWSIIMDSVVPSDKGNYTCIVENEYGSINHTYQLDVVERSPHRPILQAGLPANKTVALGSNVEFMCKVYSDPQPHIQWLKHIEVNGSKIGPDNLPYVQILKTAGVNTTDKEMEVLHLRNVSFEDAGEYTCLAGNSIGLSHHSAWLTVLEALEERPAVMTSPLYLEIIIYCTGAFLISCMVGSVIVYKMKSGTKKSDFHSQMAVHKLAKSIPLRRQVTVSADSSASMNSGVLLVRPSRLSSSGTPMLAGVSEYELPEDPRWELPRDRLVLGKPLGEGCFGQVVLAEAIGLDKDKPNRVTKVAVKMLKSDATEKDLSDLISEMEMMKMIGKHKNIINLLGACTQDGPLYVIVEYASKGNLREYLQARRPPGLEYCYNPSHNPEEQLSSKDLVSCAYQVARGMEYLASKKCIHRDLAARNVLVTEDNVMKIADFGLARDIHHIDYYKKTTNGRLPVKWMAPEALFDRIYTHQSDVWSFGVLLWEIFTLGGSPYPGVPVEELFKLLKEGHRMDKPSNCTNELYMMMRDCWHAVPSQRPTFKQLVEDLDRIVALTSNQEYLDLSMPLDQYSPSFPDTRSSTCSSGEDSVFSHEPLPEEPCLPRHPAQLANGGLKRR
Assay: Kinase assay, binding constants (Kd), kinase-tagged T7 phage, qPCR

Record excerpt, results attached:
- C[C@@H](Oc1ccc2[nH]nc(-c3cnc(N4CC5(CNC5)C4)nc3)c2c1)c1c(Cl)cncc1Cl: 1 to 20 nM
- C[C@@H](Oc1ccc2[nH]nc(-c3ccc(N4CCN(C(=O)N(C)C)CC4)nc3)c2c1)c1c(Cl)cncc1Cl: 1 to 20 nM
- C[C@@H](Oc1ccc2[nH]nc(-c3ccc(N4CC5(C4)CN(S(C)(=O)=O)C5)nc3)c2c1)c1c(Cl)cnnc1Cl [Example 246]: 1 to 20 nM

// batch mode: one Kd value per listed entry
1. COc1cc2[nH]nc(-c3cnc(N4CC[C@H](O)C4)c(C#N)c3)c2cc1O[C@H](C)c1c(C)cnnc1C
2. C[C@@H](Oc1cc2c(-c3cnc(N4CC5(C4)CN(S(C)(=O)=O)C5)c(F)c3)n[nH]c2cc1F)c1c(Cl)cnnc1Cl
3. C[C@@H](Oc1ccc2[nH]nc(-c3ccc(N4CC5(C4)CN(S(C)(=O)=O)C5)nc3)c2c1)c1c(Cl)cnnc1Cl [Example 233]
4. CCOC(=O)N1CC2(C1)CN(c1ccc(-c3n[nH]c4ccc(O[C@H](C)c5c(Cl)cnc(F)c5Cl)cc34)cn1)C2
5. C[C@@H](Oc1ccc2[nH]nc(-c3cnc(N4CCOCC4)c(C#N)c3)c2c1)c1c(Cl)cncc1Cl
6. C[C@@H](Oc1ccc2[nH]nc(-c3ccc(N4CCN(S(C)(=O)=O)CC4)nc3)c2c1)c1c(Cl)cncc1Cl
7. C[C@@H](Oc1ccc2[nH]nc(-c3ccc(N4CCC5(CCN(C)C5)CC4)nc3)c2c1)c1c(Cl)cncc1Cl

1. 20 to 100 nM
2. 1 to 20 nM
3. > 300 nM
4. 100 to 300 nM
5. 20 to 100 nM
6. 1 to 20 nM
7. 1 to 20 nM

---

Biological target: FGFR3 (Homo sapiens (Human))
Sequence (P22607 23-806): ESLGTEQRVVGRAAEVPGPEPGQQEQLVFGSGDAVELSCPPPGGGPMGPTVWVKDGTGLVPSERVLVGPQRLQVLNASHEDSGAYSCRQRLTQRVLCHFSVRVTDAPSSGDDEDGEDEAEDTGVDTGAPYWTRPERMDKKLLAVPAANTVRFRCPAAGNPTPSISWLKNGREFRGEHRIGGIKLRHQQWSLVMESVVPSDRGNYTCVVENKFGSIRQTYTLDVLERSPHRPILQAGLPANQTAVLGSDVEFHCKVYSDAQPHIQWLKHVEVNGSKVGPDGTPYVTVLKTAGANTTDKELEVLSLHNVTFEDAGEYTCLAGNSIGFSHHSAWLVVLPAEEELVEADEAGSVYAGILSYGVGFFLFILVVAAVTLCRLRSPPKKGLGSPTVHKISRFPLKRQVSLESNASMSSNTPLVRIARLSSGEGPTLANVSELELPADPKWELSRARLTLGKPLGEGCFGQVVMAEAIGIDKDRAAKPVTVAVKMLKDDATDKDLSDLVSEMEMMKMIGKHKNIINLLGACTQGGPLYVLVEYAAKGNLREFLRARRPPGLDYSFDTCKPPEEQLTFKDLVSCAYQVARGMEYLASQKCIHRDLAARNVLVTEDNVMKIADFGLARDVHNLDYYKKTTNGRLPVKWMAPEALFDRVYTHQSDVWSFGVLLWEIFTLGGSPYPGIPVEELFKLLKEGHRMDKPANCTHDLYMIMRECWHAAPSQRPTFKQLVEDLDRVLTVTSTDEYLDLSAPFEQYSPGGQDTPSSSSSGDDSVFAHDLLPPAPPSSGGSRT
Test: Kinase assay, binding constants (Kd), kinase-tagged T7 phage, qPCR
measurement-name: Kd

- C[C@@H](Oc1ccc2[nH]nc(-c3cnc(N4CCC5(CC4)CNC(=O)N5)nc3)c2c1)c1c(Cl)cncc1Cl [Example 53]: 1 to 20 nM
- C[C@@H](Oc1ccc2[nH]nc(-c3ccc(N4CCN5CCC[C@H]5C4)nc3)c2c1)c1c(Cl)cncc1Cl [Example 183]: 1 to 20 nM
- COc1cc(-c2n[nH]c3ccc(O[C@H](C)c4c(C)cnnc4C)cc23)cnc1N1CCC1 [Example 304]: 100 to 300 nM
- C[C@@H](Oc1ccc2[nH]nc(-c3cnc(N4CC(O)C4)c(C#N)c3)c2c1)c1c(Cl)cncc1Cl [Example 302]: 20 to 100 nM
- CC(C)S(=O)(=O)N1CC2(CN(c3ncc(-c4n[nH]c5ccc(O[C@H](C)c6c(Cl)cncc6Cl)cc45)cn3)C2)C1 [Example 120]: 1 to 20 nM
- C[C@@H](Oc1cc2c(-c3ccc(N4CC5(C4)CN(S(C)(=O)=O)C5)nc3)n[nH]c2cc1F)c1c(Cl)cncc1Cl [Example 255]: 1 to 20 nM
- C[C@@H](Oc1ccc2[nH]nc(-c3ccc(N4CC5(COC5)C4)nc3)c2c1)c1c(Cl)cnc(F)c1Cl [Example 203]: 1 to 20 nM
- C[C@@H](Oc1ccc2[nH]nc(-c3cnc(N4CC5(CN(CC(F)(F)F)C5)C4)c(C#N)c3)c2c1)c1c(Cl)cncc1Cl [Example 329]: 20 to 100 nM
- C[C@@H](Oc1cc2c(-c3ccc(N4CC5(C4)CN(S(C)(=O)=O)C5)nc3)n[nH]c2cc1Cl)c1c(Cl)cnnc1Cl [Example 263]: 1 to 20 nM
- CCN1CC[C@H](n2cc(-c3n[nH]c4ccc(O[C@H](C)c5c(Cl)cncc5Cl)cc34)cn2)C1 [Example 89]: 1 to 20 nM

# batch: return Kd for each of the 6 compounds below
1. C[C@@H](Oc1ccc2[nH]nc(-c3cnc(N4CCC5(CC4)CCS(=O)(=O)C5)nc3)c2c1)c1c(Cl)cncc1Cl [Example 57]
2. C[C@@H](Oc1ccc2[nH]nc(-c3ccc(N4CCC5(CCNC5=O)CC4)nc3)c2c1)c1c(Cl)cncc1Cl [Example 27]
3. C[C@@H](Oc1ccc2[nH]nc(-c3ccc(N4CC5(CCN(C)CC5)OC4=O)nc3)c2c1)c1c(Cl)cncc1Cl [Example 75]
4. C[C@@H](Oc1ccc2[nH]nc(-c3cnc(N4CCCC4)c(C#N)c3)c2c1)c1c(Cl)cnc(F)c1Cl [Example 292]
5. C[C@@H](Oc1ccc2[nH]nc(-c3ccc(N4CC5(CCOC5)C4)nc3)c2c1)c1c(Cl)cnnc1Cl [Example 223]
6. C[C@@H](Oc1cc2c(-c3cnc(N4CC5(CCCS(=O)(=O)C5)C4)c(C#N)c3)n[nH]c2cc1F)c1c(Cl)cncc1Cl [Example 362]

1 to 20 nM
1 to 20 nM
1 to 20 nM
> 300 nM
20 to 100 nM
1 to 20 nM
